# Experimental Target: Tau40 P301L protein (human)
# Protocol Summary: cell-based or functional assay
Square brackets hold non-standard residues; d marks the D form. Ends that are not written are not given here.
Please note: IC50, Tau40 assay (ThT) exactly at 1000 nM is no (0). Only values below 1000 nM get yes (1).

Examples from the recorded data:
| Binder | Class Name |
| --- | --- |
| [dL][dK][dI][dM][dI][dH][dY] [lkimihy (PEPTIDE ID NO: 317)] | no (0) |
| [dF][dK][dI][dR][dI][dH][dY][dF] [fkirihyf (PEPTIDE ID NO: 232)] | yes (1) |
| [dE][dI][dR][dL][dH][dW] [eirlhw (PEPTIDE ID NO: 74)] | no (0) |
| [dW][dR][dL][dK][dV][dA][dW] [wrlkvaw (PEPTIDE ID NO: 248)] | no (0) |
| [dL][dK][dI][dR][dI][dH][dE][dH] [lkiriheh (PEPTIDE ID NO: 318)] | no (0) |
| [dF][dR][dL][dK][dL][dR][dF][dH] [frlklrfh (PEPTIDE ID NO: 426)] | no (0) |

In the record for [dA][dR][dL][dR][dI][dH][dW] [arlrihw (PEPTIDE ID NO: 312)] , is IC50, Tau40 assay (ThT) less than 1000 nM?
no (0)

Quick check: IC50, Tau40 assay (ThT) of [dW][dH][dL][dR][dL][dR][dH][dW] [whlrlrhw (PEPTIDE ID NO: 109)] under 1000 nM?
no (0)

# check: IC50, Tau40 assay (ThT) < 1000 nM for G[dW][dR][dL][dK][dV][dR][dW] (also: all residues D-form, Gly1 is achiral) [gwrlkvrw (PEPTIDE ID NO: 209)]
yes (1)

Quick check: does [dW][dR][dL][dW][dI][dH][dW] [wrlwihw (PEPTIDE ID NO: 428)] have IC50, Tau40 assay (ThT) under 1000 nM?
no (0)

IC50, Tau40 assay (ThT) strictly < 1000 nM for this binder? [dL][dK][dI][dR][dI][dW][dY][dH] [lkiriwyh (PEPTIDE ID NO: 206)]
yes (1)

A record lists [dL][dK][dI][dR][dI][dE][dH][dY] [lkiriehy (PEPTIDE ID NO: 155)] . Is its IC50, Tau40 assay (ThT) below 1000 nM?
no (0)
